Below, each entry is listed alongside its reported EC50.
- Test system: MOLM-13 cells
- assay method text: MOLM-13 Cellular Assay
- Assay type: cell-based
- cond: Homo sapiens, MOLM-13, 72 h, read-out: MOLM-13 Cellular Assay EC50 (nM)

{"columns": ["compound structure string", "endpoint unit", "EC50"],
 "data": [
  ["CCN(CC(F)F)C(=O)Nc1cc(O[C@@H](C)C(F)(F)F)c(C(=O)Nc2c(C)ccnc2OC)cc1F", "nM", 30],
  ["CCN(CCOC)C(=O)Nc1cc(O[C@@H](C)C(F)(F)F)c(C(=O)Nc2c(F)cccc2Cl)cc1F", "nM", 1.2],
  ["COc1nccc(C)c1NC(=O)c1cc(F)c(NC(=O)N2CCC[C@@H]2CO)cc1O[C@@H](C)C(F)(F)F", "nM", 16],
  ["CCN(C(=O)Nc1cc(O[C@@H](C)C(F)(F)F)c(C(=O)Nc2c(F)cccc2Cl)cc1F)C(C)C", "nM", 2.1],
  ["CCN(CC(F)F)C(=O)Nc1cc(O[C@@H](C)C(F)(F)F)c(C(=O)Nc2c(C)ccnc2Cl)cc1F", "nM", 37]
]}

Entry source: patent US20220298107A1
